// values below are reported Relative Proliferation Fold Change NKL 1:50
Target: T1, orthogonal hCD122 receptor (hoRb), hCD122 with H133D and Y134F (human, UniProt P14784 27-550); further: reference of the scale not given here
T1 sequence: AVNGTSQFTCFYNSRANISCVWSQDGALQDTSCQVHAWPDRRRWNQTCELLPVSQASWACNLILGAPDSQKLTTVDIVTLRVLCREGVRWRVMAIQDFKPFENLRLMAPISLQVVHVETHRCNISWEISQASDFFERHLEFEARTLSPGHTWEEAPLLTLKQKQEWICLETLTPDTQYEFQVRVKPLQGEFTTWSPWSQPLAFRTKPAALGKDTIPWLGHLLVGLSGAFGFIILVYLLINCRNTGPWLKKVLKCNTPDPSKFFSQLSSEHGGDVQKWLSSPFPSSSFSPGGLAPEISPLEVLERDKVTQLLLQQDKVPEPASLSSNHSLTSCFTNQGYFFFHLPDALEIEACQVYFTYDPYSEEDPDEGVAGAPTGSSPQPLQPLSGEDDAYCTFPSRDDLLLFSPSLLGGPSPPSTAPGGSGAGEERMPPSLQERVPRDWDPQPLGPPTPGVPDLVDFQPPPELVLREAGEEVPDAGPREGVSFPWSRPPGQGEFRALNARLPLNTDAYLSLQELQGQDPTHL
Assay: cell-based or functional assay
# number only, unit fold dropped from output

Answered cases to consult:
• L14W, SQVLKA (ligand) APTSSSTKKTQLQWSQLLVLLKAILNGINNYKNPKLTRMLTFKFYMPKKATELKHLQCLEEELKPLEEVLNLAQSKNFHLRPRDLISNINVIVLELKGSETTFMCEYADETATIVEFLNRWITFCQSIISTLT = 1.39
• SQVLRA (ligand) APTSSSTKKTQLQLSQLLVLLRAILNGINNYKNPKLTRMLTFKFYMPKKATELKHLQCLEEELKPLEEVLNLAQSKNFHLRPRDLISNINVIVLELKGSETTFMCEYADETATIVEFLNRWITFCQSIISTLT = 2.28
• R38G, SQVLKA (ligand) APTSSSTKKTQLQLSQLLVLLKAILNGINNYKNPKLTGMLTFKFYMPKKATELKHLQCLEEELKPLEEVLNLAQSKNFHLRPRDLISNINVIVLELKGSETTFMCEYADETATIVEFLNRWITFCQSIISTLT = 0.67

Kindly consider the entry below.
Can you look up the measured Relative Proliferation Fold Change NKL 1:50 of SQVLYA, E116G (ligand) APTSSSTKKTQLQLSQLLVLLYAILNGINNYKNPKLTRMLTFKFYMPKKATELKHLQCLEEELKPLEEVLNLAQSKNFHLRPRDLISNINVIVLELKGSETTFMCEYADETATIVEFLNRWITFCQSIISTLT for me? 0.63
